A short record of Ki observed with HpThyX (Helicobacter pylori) follows.
Sequence (O26061 whole entry): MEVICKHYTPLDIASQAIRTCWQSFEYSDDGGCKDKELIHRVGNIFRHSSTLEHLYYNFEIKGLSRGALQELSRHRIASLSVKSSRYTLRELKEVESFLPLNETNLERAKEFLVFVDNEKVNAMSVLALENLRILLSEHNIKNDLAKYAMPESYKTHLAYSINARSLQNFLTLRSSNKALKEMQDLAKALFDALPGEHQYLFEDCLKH
Give your result in nM as a bare value.

Inquiry: Could you share what Ki was measured for O=C1C(O)=C(Cc2ccco2)C(=O)c2ccccc21 [010-C] , tested on HpThyX (Helicobacter pylori)?
Reply text: 28

Inquiry: Param readout= Ki; system= HpThyX (Helicobacter pylori); entry= COc1ccc(CC2=C(O)C(=O)c3ccccc3C2=O)cc1 [007-A] ; returns value.
Reply text: 367

Inquiry: Please state recorded Ki (tested on HpThyX (Helicobacter pylori)) of CCCCC1=C(O)C(=O)c2ccccc2C1=O [010-I]
Reply text: 258

----------
- Tested on: AGS cells
- Test details: cytotoxicity, LDH release
- Assay type: cell-based, human
- Run conditions: 0.78 to 50 μg ml^−1, 24 h
Quantity kind: cytotoxicity

CCCCC1=C(O)C(=O)c2ccccc2C1=O [010-I] = non-cytotoxic
O=C1C(O)=C(Cc2ccc(F)c(C(F)(F)F)c2)C(=O)c2ccccc21 [010-E] = non-cytotoxic
O=C1C(O)=C(Cc2ccco2)C(=O)c2ccccc21 [010-C] = non-cytotoxic
COc1ccc(CC2=C(O)C(=O)c3ccccc3C2=O)cc1 [007-A] = non-cytotoxic
